Source listed as patent US20240327505A1.

biological target: SARS-CoV-2 spike receptor-binding domain (RBD) (SARS-CoV-2, UniProt P0DTC2 319-541)
quantity-name: kon (M⁻¹ s⁻¹)
Answers are plain numbers, in M⁻¹ s⁻¹.

AB-009251 (antibody, V domains shown) V domain 1: QVQLVQSGAEVKKPGASVKVSCKTSGYTFTTFYIHWVRQVPGQGLEWMGIINPDGGSTNYAQEFQARVTMTTDTSTSTAYMELSSLRFEDTAVFYCATSLGAPPGLSPRTGPQRRGPPGFDFWGQGTLITVSA V domain 2: QSVLTQPPSVSGAPGQRVTISCTGSSSNIGAGYDVHWYQQLPGTAPKLLIFDNNNRPSGVPYRFSGSRSGTSASLAITGLQPEDEADYYCQSYDSSLSGRVFGGGTRVTVL : 50400
AB-009666 (antibody, V domains shown) VH: EVQLVESGGGLVQPGGSLRLSCAASGFTFSSYDMHWVRQATGKGLEWVSTIGTAGDTYYPGSVKGRFTISRENAKNSLYLQMNSLRAEDTAVYYCARVNYDSSGYPTYWYFDLWGRGTLVTVSS VL: DIQMTQSPSSLSASVGDRVTITCRASQSISRYLNWYQQKPGKAPKLLIYAASSLQSGVPSRFSGSGSGTDFTLTISSLQPEDFATYNCQQSYSSPPWTFGQGTKVEIK : 204000
AB-009269 (antibody, V domains shown) VH: QVQLVQSGAEVKKPGASVKVSCKASGYTFTSYGISWVRQAPGQGLEWMGWISAYNGNTNYAQKLQGRVTMTTDTSTSTAYMELRSLRSDDTAVYYCAREGDCSGGSCYSGYYYYYGMDVWGQGTTVTVSS VL: EIVLTQSPATLSLSPGERATLSCRASQSVSSYLAWYQQKPGQAPRLLIYDASNRATGIPARFSGSGSGTDFTLTISSLEPEDFAVYYCQQRSNWGTFGPGTKVDIK : 56300

Problem: # get_value(readout='kon', item= AB-009221 (antibody, V domains shown) VH: EVQLVESGGGLVQPGGSLRLSCAASGFTVSSNYMSWVRQAPGKGLEWVSVIYSGGSTYYADSVKGRFTISRHNSKNTLYLQMNSLRAEDTAVYYCARDRNAFDIWGQGTMVIVSS VL: DIQMTQSPSSLSASVGDRVSITCQASQDISNDLNWYQQKPGKAPKLLVYDASKLETGVPPRFSGSGSGTDFTFTISSLQPEDIATYYCQQYDNLPLYSFGQGTKLEIK )
Result: 45800
